These measurements were taken from patent US20250282827A1.

The following compounds are listed with their measured MIC K. pneumoniae ATCC 700603 values.
System: K. pneumoniae ATCC 700603
Assay type: cell-based, Klebsiella pneumoniae
condition_set: median of triplicate
Positions of bridges follow the written chain, without caps; N, C: chain ends. Non-standard residues stand in square brackets, D forms with d. Residues, ends and D or L forms follow the SMILES beside them. *: point of attachment. Ethyl(2-OBz) = O=C(OCC*)c1ccccc1; Lauroyl = CCCCCCCCCCCC(=O)*; Dab = NCC[C@H](N)C(=O)O; X3 = CCCC(C)C(=O)OCC*
Numbers only; they are read as µg/mL.

Consider the worked cases shown below.
CCCCCCCCCCCC(=O)N[C@@H](CSCCOC(=O)c1ccccc1)C(=O)N[C@@H](CCN)C(=O)N[C@H](C(=O)N[C@@H](CCN)C(=O)N[C@H]1CCNC(=O)[C@H]([C@@H](C)O)NC(=O)[C@H](CCN)NC(=O)[C@H](CCN)NC(=O)[C@H](CSCCOC(=O)c2ccccc2)NC(=O)[C@@H](Cc2ccccc2)NC(=O)[C@H](CCN)NC1=O)[C@@H](C)O [Compound 52] (Lauroyl-C(Ethyl(2-OBz))[Dab]T[Dab][Dab][Dab][dF]C(Ethyl(2-OBz))[Dab][Dab]T; lactam 5-C): 4
CCCC(C)C(=O)OCCSC[C@@H](N)C(=O)N[C@H](C(=O)N[C@@H](CCN)C(=O)N[C@H]1CCNC(=O)[C@H]([C@@H](C)O)NC(=O)[C@H](CCN)NC(=O)[C@H](CCN)NC(=O)[C@H](CC(C)C)NC(=O)[C@@H](Cc2ccccc2)NC(=O)[C@H](CCN)NC1=O)[C@@H](C)O (some centres unmarked) [Compound 94] (H-[dC](X3)T[Dab][Dab][Dab][dF]L[Dab][Dab]T; lactam 4-C): 2
CC(C)C[C@@H]1NC(=O)[C@@H](Cc2ccccc2)NC(=O)[C@H](CCN)NC(=O)[C@@H](NC(=O)[C@H](CCN)NC(=O)[C@@H](NC(=O)[C@H](CCN)NC(=O)[C@@H](N)CSCCOC(=O)c2ccccc2)[C@@H](C)O)CCNC(=O)[C@H]([C@@H](C)O)NC(=O)[C@H](CCN)NC(=O)[C@H](CCN)NC1=O [Compound 33] (H-C(Ethyl(2-OBz))[Dab]T[Dab][Dab][Dab][dF]L[Dab][Dab]T; lactam 5-C): 0.25

Now consider the entry below.
Task: Given the compound CC(=O)N[C@@H](CSCCOC(=O)c1ccccc1)C(=O)N[C@@H](CCN)C(=O)N[C@H](C(=O)N[C@@H](CCN)C(=O)N[C@H]1CCNC(=O)[C@H]([C@@H](C)O)NC(=O)[C@H](CCN)NC(=O)[C@H](CCN)NC(=O)[C@H](CSCCOC(=O)c2ccccc2)NC(=O)[C@@H](Cc2ccccc2)NC(=O)[C@H](CCN)NC1=O)[C@@H](C)O [Compound 49] (Ac-C(Ethyl(2-OBz))[Dab]T[Dab][Dab][Dab][dF]C(Ethyl(2-OBz))[Dab][Dab]T; lactam 5-C) , what is its reported MIC K. pneumoniae ATCC 700603?
Result: 0.5
